Data provenance: patent US8877748B2

Test system: PC-3
Test: NCI one-dose screening, prostate cancer PC-3
Format: cell-based, human
Settings: 10 μM

- COMPOUND: "O=C1c2ccccc2C(=O)c2c1cc(SCc1ccccc1)c1nsnc21 [C21]"
  Growth Percent PC-3 / %: 38.44
- COMPOUND: "COc1ccc(Sc2cc3c(c4nsnc24)C(=O)c2ccccc2C3=O)cc1 [C41]"
  Growth Percent PC-3 / %: 82.81
- COMPOUND: "COc1cccc(Sc2cc3c(c4nsnc24)C(=O)c2ccccc2C3=O)c1 [C46]"
  Growth Percent PC-3 / %: 75.99
- COMPOUND: "O=C1c2ccccc2C(=O)c2c1cc(Sc1ccccc1Br)c1nsnc21 [C27]"
  Growth Percent PC-3 / %: 4.23
